Known IC50 of a selection of compounds
System Name: KDR (h) (Homo sapiens, UniProt P35968)
Sequence (P35968 20-1356): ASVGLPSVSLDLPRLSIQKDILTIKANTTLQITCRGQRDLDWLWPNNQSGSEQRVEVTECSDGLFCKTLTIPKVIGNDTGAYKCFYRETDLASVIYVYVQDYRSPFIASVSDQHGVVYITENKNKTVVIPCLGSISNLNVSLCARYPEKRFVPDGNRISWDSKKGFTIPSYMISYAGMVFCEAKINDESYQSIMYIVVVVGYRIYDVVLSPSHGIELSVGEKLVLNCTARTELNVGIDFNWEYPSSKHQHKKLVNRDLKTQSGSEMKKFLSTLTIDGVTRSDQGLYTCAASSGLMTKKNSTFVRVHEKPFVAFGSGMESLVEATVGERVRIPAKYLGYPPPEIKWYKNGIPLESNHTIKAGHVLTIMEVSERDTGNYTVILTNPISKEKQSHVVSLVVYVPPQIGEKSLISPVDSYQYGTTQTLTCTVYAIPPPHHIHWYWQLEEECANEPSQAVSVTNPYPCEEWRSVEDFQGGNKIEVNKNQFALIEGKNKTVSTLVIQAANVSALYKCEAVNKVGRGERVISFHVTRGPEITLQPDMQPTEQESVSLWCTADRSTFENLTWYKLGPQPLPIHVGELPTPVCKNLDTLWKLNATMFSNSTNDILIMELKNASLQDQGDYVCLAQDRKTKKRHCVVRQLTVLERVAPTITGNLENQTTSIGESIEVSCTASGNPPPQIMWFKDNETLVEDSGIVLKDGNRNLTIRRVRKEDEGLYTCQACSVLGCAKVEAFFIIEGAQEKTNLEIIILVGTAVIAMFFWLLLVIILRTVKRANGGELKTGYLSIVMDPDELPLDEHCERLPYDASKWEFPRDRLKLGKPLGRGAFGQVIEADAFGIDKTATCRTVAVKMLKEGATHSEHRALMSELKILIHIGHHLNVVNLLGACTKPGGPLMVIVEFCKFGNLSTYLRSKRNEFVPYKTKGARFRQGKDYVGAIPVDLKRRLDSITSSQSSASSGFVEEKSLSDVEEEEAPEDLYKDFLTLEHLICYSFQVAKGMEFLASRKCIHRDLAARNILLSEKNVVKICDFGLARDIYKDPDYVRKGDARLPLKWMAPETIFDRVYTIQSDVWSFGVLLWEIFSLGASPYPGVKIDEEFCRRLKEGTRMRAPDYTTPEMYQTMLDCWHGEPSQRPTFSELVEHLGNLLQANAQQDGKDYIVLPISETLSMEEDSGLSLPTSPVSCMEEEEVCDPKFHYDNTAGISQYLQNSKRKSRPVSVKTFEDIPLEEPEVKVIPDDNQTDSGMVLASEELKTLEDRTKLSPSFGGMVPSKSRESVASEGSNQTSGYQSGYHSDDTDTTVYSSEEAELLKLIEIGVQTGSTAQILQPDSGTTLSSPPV
Test Method Notes: KDR (VEGFR2) (enzymatic assay), TR-FRET
Format: biochemical
Protocol Conditions: read-out: VEGFR 2 (KDR) pIC50 (converted)
Procedure: KDR (VEGFR2) (Enzymatic Assay) In a final reaction volume of 30 μL, KDR (h) (150 ng/ml) was incubated with 50 mM HEPES pH 7.5, 6 mM MnCl2, 1 mM DTT, 0.1 mM Na3VO4, 0.01% Triton-X-100, 500 nM Btn-Flt3 and 3 μM ATP in the presence of compound (1% DMSO final). […] Time-Resolved Fluorescence Resonance Energy Transfer (TR-FRET) signal (ex340 nm. Em 620 nm, em 655 nm) was measured afterwards and results are expressed in RFU (Relative Fluorescence Units).

Query: Enter reported IC50 observed with KDR (h) (Homo sapiens, UniProt P35968) for COc1cc(OC)c(C)c(N(Cc2ncc[nH]2)c2ccc3ncc(-c4cnn(C)c4)nc3n2)c1 [Compound 273]
Response: 20.4 nM

---
Query: GET /values?readout=IC50&system=KDR (h) (Homo sapiens, UniProt P35968)&item= COc1cc(O)c(F)c(N(Cc2ncc[nH]2)c2ccc3ncc(-c4cnn(C)c4)nc3n2)c1 [Compound 96]
Response: 11.5 nM

Query: Input COc1cc(OC)c(F)c(N(Cc2n[nH]c(=O)o2)c2ccc3ncc(-c4cnn(C)c4)nc3n2)c1 [Compound 284]
Response: 63.1 nM

Query: How about this compound: COc1cc(OC)cc(N(Cc2nnc(N)o2)c2ccc3ncc(-c4cnn(C)c4)nc3n2)c1 [Compound 188]
Response: 33.9 nM

====

System Name: FGFR2 (h) (Homo sapiens)
Sequence (P21802 22-821): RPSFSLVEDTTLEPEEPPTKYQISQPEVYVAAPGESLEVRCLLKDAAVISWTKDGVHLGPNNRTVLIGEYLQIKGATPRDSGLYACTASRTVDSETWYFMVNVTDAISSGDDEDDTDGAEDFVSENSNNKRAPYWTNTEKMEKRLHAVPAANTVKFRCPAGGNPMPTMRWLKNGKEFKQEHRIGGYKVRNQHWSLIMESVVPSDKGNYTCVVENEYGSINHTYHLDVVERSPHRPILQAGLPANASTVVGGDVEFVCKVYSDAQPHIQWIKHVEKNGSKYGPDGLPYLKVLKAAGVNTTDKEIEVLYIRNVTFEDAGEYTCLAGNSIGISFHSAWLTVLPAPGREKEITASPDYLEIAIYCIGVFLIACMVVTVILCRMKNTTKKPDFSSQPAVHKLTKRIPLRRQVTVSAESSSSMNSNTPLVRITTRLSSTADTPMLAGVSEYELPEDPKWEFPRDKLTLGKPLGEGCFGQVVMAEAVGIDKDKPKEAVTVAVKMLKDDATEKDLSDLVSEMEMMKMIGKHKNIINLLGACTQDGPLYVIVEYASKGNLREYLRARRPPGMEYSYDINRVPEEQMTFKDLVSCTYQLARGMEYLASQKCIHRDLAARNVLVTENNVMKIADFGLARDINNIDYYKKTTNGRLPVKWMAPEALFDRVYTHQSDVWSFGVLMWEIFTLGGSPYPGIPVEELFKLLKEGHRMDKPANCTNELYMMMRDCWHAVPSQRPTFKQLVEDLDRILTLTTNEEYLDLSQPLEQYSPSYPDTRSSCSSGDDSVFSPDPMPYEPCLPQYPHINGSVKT
Test Method Notes: FGFR2 (enzymatic assay), TR-FRET
Format: biochemical
Protocol Conditions: FGFR 2 pIC50, enzymatic assay; average values if tested multiple times
Value Kind: IC50 (nM)
Use nM as the unit, but write only the number.

Query: Which IC50 is reported with FGFR2 (h) (Homo sapiens) for this entry: COc1cc(OC)cc(N(CCNC(C)C)c2ccc3ncc(-c4cnn(C)c4)nc3n2)c1 ?
Response: 25.1

====

System Name: Ba/F3-FGFR4-transfected cells (Homo sapiens, UniProt P22455)
Sequence (P22455 whole entry, change not shown): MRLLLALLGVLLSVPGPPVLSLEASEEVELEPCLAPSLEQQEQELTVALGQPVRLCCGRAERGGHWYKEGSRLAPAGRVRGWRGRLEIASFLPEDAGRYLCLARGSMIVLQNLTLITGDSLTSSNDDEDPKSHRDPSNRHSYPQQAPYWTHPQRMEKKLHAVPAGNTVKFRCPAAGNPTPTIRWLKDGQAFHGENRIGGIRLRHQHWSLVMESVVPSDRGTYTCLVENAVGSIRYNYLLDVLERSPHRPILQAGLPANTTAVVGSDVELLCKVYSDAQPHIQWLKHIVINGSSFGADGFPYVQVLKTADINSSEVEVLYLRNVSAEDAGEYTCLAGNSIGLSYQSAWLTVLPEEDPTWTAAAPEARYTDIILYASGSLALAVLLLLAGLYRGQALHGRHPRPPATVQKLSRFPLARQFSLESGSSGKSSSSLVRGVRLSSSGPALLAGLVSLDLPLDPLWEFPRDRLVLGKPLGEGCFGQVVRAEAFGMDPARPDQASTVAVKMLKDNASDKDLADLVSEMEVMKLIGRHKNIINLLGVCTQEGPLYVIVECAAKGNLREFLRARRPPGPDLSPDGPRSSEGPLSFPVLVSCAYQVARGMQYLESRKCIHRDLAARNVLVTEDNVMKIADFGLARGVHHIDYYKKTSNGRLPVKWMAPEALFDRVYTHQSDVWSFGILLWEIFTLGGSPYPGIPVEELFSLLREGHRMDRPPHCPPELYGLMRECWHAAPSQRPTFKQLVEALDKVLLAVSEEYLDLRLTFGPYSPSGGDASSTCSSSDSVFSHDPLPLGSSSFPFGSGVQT
Test Method Notes: Ba/F3-FGFR4 cellular proliferation assay, Alamar Blue
Format: cell-based
Item-by-item account of BAF3-FGFR4 pIC50

Query: # input molecule: COc1cc(OC)cc(N(CCCO)c2ccc3ncc(-c4cnn(C)c4)nc3n2)c1 [Compound 18] ; wanted: its BAF3-FGFR4 pIC50
Response: ~6.64

More entries:
Query: Please give the measured BAF3-FGFR4 pIC50 for this molecule: COc1cc(O)cc(N(Cc2ncc[nH]2)c2ccc3ncc(-c4cnn(C)c4)nc3n2)c1F [Compound 95]
Response: 8.03

Query: Okay, and COc1cc(/N=c2\ccc3ncc(-c4cnn(C)c4)nc3n2CC2CCC(=O)N2CCO)c(F)c(OC)c1 (single isomer, unassigned) [Compound 219] ?
Response: 6.78

Query: Another molecule to check: COc1cc(OC)c(F)c(N(Cc2c(C)noc2C)c2ccc3ncc(-c4cnn(C)c4)nc3n2)c1 [Compound 178]
Response: 5.83

====

System Name: UniProt P35968
Test Method Notes: KDR (VEGFR2) (enzymatic assay), TR-FRET
Type: biochemical
Protocol Conditions: average values if tested multiple times, read-out: VEGFR 2 (KDR) pIC50 (converted)
Quick reference: IC50 of the listed items.

Example compounds with recorded IC50:
Query: Item under review: COc1cc(OC)cc(N(CCNC(C)C)c2ccc3ncc(-c4cnn(C)c4)nc3n2)c1 [Compound 1] . Reported IC50?
Response: 251 nM

Query: And what about the compound COc1cc(OC)c(F)c(N(CCCN2CCCC2=O)c2ccc3ncc(-c4cnn(C)c4)nc3n2)c1F [Compound 56] ?
Response: 7.76 nM

Query: Also check COc1cc(OC)c(F)c(N(Cc2nc[nH]n2)c2ccc3ncc(-c4cnn(C)c4)nc3n2)c1F [Compound 85]
Response: 6.76 nM

Query: Same thing, different compound: COc1cc(OC)cc(N(CCCO)c2ccc3ncc(-c4cnn(C)c4)nc3n2)c1 [Compound 18]
Response: 50.1 nM

Query: One more compound: CNCCn1/c(=N/c2c(F)ccc(OC)c2Cl)ccc2ncc(-c3cnn(C)c3)nc21 [Compound 70]
Response: 537 nM

---
Query: Would you mind telling me what IC50 value was observed for COc1cc(OC)c(Cl)c(N(Cc2ncc[nH]2)c2ccc3ncc(-c4cnn(C)c4)nc3n2)c1 [Compound 42] ?
Response: 8.91 nM

Query: Would you mind doing COc1cc(OC)cc(N(CC2CCC(=O)N2)c2ccc3ncc(-c4cnn(C)c4)nc3n2)c1 (stereo not shown) [Compound 49] as well?
Response: 60.3 nM

====

System Name: Ba/F3-FGFR1-transfected cells (Homo sapiens, UniProt P11362)
Construct: BAF3-FGFR1 (MIN IL3) pIC50; other: minus IL3
Sequence (P11362 whole entry, change not shown): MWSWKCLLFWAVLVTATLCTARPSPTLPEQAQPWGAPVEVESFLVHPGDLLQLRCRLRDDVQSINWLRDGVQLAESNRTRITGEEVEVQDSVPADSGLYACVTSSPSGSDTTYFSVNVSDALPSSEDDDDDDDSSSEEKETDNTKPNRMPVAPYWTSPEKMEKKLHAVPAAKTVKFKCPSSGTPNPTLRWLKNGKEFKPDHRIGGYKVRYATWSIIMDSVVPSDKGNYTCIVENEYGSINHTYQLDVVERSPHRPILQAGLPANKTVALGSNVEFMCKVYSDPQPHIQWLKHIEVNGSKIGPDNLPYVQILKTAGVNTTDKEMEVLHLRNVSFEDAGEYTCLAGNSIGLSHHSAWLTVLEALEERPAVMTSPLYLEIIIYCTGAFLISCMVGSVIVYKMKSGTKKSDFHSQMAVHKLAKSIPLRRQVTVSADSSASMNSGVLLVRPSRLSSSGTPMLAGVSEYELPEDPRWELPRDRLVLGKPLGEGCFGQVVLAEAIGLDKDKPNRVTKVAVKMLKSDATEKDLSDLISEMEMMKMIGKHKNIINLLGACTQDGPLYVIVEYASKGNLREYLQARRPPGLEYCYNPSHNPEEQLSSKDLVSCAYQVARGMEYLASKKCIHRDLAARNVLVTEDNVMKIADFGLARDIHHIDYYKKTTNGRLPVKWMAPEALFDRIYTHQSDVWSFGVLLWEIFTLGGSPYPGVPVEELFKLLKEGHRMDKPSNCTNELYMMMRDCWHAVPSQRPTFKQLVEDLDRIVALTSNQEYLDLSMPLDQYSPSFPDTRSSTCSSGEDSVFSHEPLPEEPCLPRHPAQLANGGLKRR
Test Method Notes: Ba/F3-FGFR1 (minus IL3) cellular proliferation assay, Alamar Blue
Type: cell-based
Value Kind: BAF3-FGFR1 (MIN IL3) pIC50
Reply: number alone, nothing else.

Consider the following illustrative entries.
Query: # lookup: BAF3-FGFR1 (MIN IL3) pIC50 of COc1cc(OC)c(F)c(N(Cc2ncc[nH]2)c2ccc3ncc(-c4cnn(C)c4)nc3n2)c1 [Compound 23]
Response: 8.85

Query: Lookup CCOCc1c[nH]c(CN(c2ccc3ncc(-c4cnn(C)c4)nc3n2)c2cc(OC)cc(OC)c2F)n1
Response: 7.89

Query: And the next one, COc1cc(OC)c(F)c(N(Cc2nc(CO)c[nH]2)c2ccc3ncc(-c4cnn(C)c4)nc3n2)c1 ?
Response: 7.45

Query: How about COc1cc(OC)c(F)c(N(Cc2n[nH]c(=O)o2)c2ccc3ncc(-c4cnn(C)c4)nc3n2)c1 ?
Response: 6.37

Query: Same lookup for COc1cc(/N=c2\ccc3ncc(-c4cnn(C)c4)nc3n2CC2CCC(=O)N2C)c(F)c(OC)c1 (stereo not shown) [Compound 160] , please.
Response: 7.58

Query: Here is the next compound: COc1cc(OC)cc(N(CCS(C)(=O)=O)c2ccc3ncc(-c4cnn(CCS(C)(=O)=O)c4)nc3n2)c1
Response: 5.64

Field: next compound
Query: Please give the measured BAF3-FGFR1 (MIN IL3) pIC50 for this compound: COc1cc(OC)c(F)c(N(CCO)c2ccc3ncc(-c4cnn(CCO)c4)nc3n2)c1
Response: 7.49

====

This section presents molecules with their documented pIC50 values.
System Name: UniProt P22455
Test Method Notes: FGFR4 (enzymatic assay), TR-FRET
Assay type: biochemical
Protocol Conditions: FGFR 4 pIC50, enzymatic assay; average values if tested multiple times
Where a name gives a salt, the structure may show the parent alone.
Note on units: pIC50 is unitless, being -log10 of a concentration expressed in mol/L.

Query: Entry COc1cc(OC)c(F)c(N(CCNC(C)C)c2ccc3ncc(-c4cnn(C)c4)nc3n2)c1F [Compound 5] has what pIC50?
Response: 8.20

Query: Consider next the molecule COc1cc(OC)c(F)c(N(CC(O)COC(C)C)c2ccc3ncc(-c4cnn(C)c4)nc3n2)c1 (single isomer, unassigned) [Compound 75] in the same way.
Response: 8.65

Query: Request: COc1cc(OC)cc(N(CC#Cc2ncccc2OC)c2ccc3ncc(-c4cnn(C)c4)nc3n2)c1 [Compound 26]
Response: 7.20

Query: Request: COc1cc(OC)c(F)c(N(CCN)c2ccc3ncc(-c4cnn(C)c4)nc3n2)c1F [Compound 67]
Response: 8.56

Query: Follow-up item: COc1cc(O)cc(N(Cc2ncc[nH]2)c2ccc3ncc(-c4cnn(C)c4)nc3n2)c1 [Compound 103]
Response: 9.13

Query: Next: COc1cc(OC)c(F)c(N(Cc2ncc[nH]2)c2ccc3ncc(-c4cnn(C)c4)nc3n2)c1 [23-hydrochloric acid salt]
Response: 9.07

Please find the next molecule below.
Query: Which value of pIC50 has been reported for Cn1cc(-c2cnc3ccc(N(Cc4ncc[nH]4)c4cc(F)cc(F)c4)nc3n2)cn1 [Compound 27] in the records?
Response: 7.95

====

System Name: FGFR3 (h) (Homo sapiens, UniProt P22607)
Sequence (P22607 23-806): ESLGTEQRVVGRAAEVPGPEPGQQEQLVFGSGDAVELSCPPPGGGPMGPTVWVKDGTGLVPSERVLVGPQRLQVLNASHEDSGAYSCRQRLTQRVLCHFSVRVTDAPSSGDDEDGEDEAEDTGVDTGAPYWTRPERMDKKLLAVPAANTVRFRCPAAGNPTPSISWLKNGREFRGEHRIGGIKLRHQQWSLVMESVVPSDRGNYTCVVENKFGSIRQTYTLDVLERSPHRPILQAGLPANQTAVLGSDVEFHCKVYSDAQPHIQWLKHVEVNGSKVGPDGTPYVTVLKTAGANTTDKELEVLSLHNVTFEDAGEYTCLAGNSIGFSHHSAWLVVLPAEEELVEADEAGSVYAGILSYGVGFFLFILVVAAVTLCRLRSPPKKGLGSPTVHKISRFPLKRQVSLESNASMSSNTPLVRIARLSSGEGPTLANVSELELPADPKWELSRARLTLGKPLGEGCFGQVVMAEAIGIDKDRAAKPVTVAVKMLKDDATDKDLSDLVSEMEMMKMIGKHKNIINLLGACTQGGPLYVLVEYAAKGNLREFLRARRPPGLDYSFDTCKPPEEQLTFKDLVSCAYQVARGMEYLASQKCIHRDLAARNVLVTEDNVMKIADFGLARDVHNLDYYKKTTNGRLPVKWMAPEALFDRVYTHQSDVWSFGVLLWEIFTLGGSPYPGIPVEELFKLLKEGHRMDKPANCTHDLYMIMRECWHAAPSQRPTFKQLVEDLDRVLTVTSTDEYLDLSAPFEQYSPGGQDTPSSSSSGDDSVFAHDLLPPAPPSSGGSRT
Test Method Notes: FGFR3 (enzymatic assay), TR-FRET
Format: biochemical
Protocol Conditions: average values if tested multiple times, read-out: FGFR 3 pIC50 (converted)
Structures can show the parent of a compound that is named as a salt.
Value Kind: IC50 (nM)
// note: answer is a bare numeric in nM

Please review the following examples before continuing.
Query: What value of IC50 has been recorded for this entry: COc1cc(OC)c(F)c(/N=c2\ccc3ncc(-c4cnn(C)c4)nc3n2CCCO)c1F (single isomer, unassigned) [Compound 17]
Response: 0.398

Query: And then COc1cc(OC)c(F)c(/N=c2\ccc3ncc(-c4cnn(C)c4)nc3n2CCN)c1F [Compound 68] , what is it?
Response: 1.62

Query: What would you report for COc1cc(OC)c(F)c(N(CC2CCC(=O)N2)c2ccc3ncc(-c4cnn(C)c4)nc3n2)c1F (stereo not shown) [Compound 48] ?
Response: 1.7

Query: Entry to check: COc1cc(OC)cc(N(CC2CCC(=O)N2)c2ccc3ncc(-c4cnn(C)c4)nc3n2)c1 (stereo not shown) [Compound 54]
Response: 3.02

Query: Again, but for COc1cc(OC)cc(N(Cc2ncc[nH]2)c2ccc3ncc(-c4cnn(C)c4)nc3n2)c1 [24-hydrochloric acid salt]
Response: 1.02

Continuing:
Query: GET /values?readout=IC50&item= CNCCN(c1ccc2ncc(-c3cnn(C)c3)nc2n1)c1c(F)ccc(OC)c1Cl [Compound 69]
Response: 6.46

Query: Next entry: COc1ccc(Cl)c(/N=c2\ccc3ncc(-c4cnn(C)c4)nc3n2CC2CCC(=O)N2)c1Cl (stereo not shown) [Compound 92]
Response: 46.8
